targetUnderTest: T1, hVEGF-A Q89A (human, UniProt P15692 34-135)
T1 chain: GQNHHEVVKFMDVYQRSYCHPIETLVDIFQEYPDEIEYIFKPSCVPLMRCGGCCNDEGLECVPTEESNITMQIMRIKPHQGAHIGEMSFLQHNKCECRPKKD
protocol: SPR
Give measured pKd for each item. Keep answers brief.
One number for each entry, as −log10 of the molar value.

binder | pKd
GCNIMLPFWGCGRDFECLAGCVCQYYQSCG (designed binder) [VEGF_CKP9.54.90] | 8.06

The following binders each have a reported value; give each one's pKd.
1. GCDVMQPYWGCGPDIDCLAGCVCHWYNSCG (designed binder, also called L2.9.63.12) [VEGF_CKP9.63.12]
2. GCNIMLPFWGCKQDSDCLAGCVCQYYQSCG (designed binder, also called EM54) [VEGF_CKP9.54]
3. GCDVMQPYWGCKQDSDCLAGCVCHWYNSCG (designed binder, also called EM63) [VEGF_CKP9.63]

1. 7.44
2. 5.73
3. 5.70
